B1: RAD51 (parent)
chain: APKKELINIKGISEAKADKILAEA

Variants of: B1
assay protocol: protein stability index of a GFP-peptide fusion (GPS, HEK-293T) (PSI 1-6); higher = more stable;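 note: lentivirally expressed fusions sorted by FACS into six bins by GFP to DsRed ratio, PSI derived from sequencing read proportions per bin multiplied by bin number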
condition details: c terminus: a fixed tail appended
Please enter yes where protein stability index is greater than or equal to 5, and no where it is lower.

Example results:
[
  {
    "mutation spec": "G11K",
    "answer label": "no"
  },
  {
    "mutation spec": "I7V",
    "answer label": "yes"
  },
  {
    "mutation spec": "I7Q",
    "answer label": "no"
  },
  {
    "mutation spec": "K10I",
    "answer label": "no"
  },
  {
    "mutation spec": "E5D",
    "answer label": "no"
  }
]

Quick check, protein stability index >= 5? `N8A`
no

Quick check, protein stability index >= 5? `P2E`
no

Quick check, protein stability index >= 5? `A15G`
no

Quick check, protein stability index >= 5? `I9T`
yes

Quick check, protein stability index >= 5? `A1P`
no

Quick check, protein stability index >= 5? `A17T`
no

Quick check, protein stability index >= 5? `I20W`
no

Quick check, protein stability index >= 5? `I20Q`
yes

Quick check, protein stability index >= 5? `E14Q`
no

Quick check, protein stability index >= 5? `P2N`
no

Quick check, protein stability index >= 5? `E5M`
no

Quick check, protein stability index >= 5? `A1I`
no

Quick check, protein stability index >= 5? `I9C`
yes
